Value source: the supplement of paper PMC10126150

A collection of sequences and their measured switch fluorescence ratio
system: ATP; test: switch fluorescence ratio, 500 uM ATP over buffer (Cy3 cluster intensity, sum of 5 cycles each) (fold (ratio)); higher = stronger signal-on switching upon ATP binding; sequences stand for … in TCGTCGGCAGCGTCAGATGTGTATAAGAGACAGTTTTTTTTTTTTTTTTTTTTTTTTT…TC; settings: aptamer strand: ATP DNA aptamer (quencher-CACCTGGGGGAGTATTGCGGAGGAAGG + anchor), 100 nM annealed; ATP concentration: 500 uM;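 also: ATP exposure 15 min at 22 °C before imaging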
Keep the answer to the number alone.

Request: What value of switch fluorescence ratio has been recorded for this entry: TGGGGGCCGG
Response: 1.02

Request: Could you tell me which switch fluorescence ratio is on file for TGGGATGGAG ?
Response: 0.976

Request: Quick one: switch fluorescence ratio of TATTCATCGT ?
Response: 0.993

Request: Entry under review: TATCGTAGAG . Reported switch fluorescence ratio?
Response: 1.01

Request: Please report the recorded switch fluorescence ratio for AGATACAGTT .
Response: 1.02

Request: What value of switch fluorescence ratio has been reported for the following sequence? CGGTGTGAGG
Response: 0.988

Request: I'd like to know its switch fluorescence ratio. The sequence in question is CGATTTGGAG
Response: 0.995

====

system: ATP; test: switch fluorescence ratio, 500 uM ATP over buffer (Cy3 cluster intensity, sum of 5 cycles each) (fold (ratio)); higher = stronger signal-on switching upon ATP binding; sequences stand for … in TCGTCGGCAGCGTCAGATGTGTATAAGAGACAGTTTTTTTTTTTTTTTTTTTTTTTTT…TC; conditions: aptamer strand: ATP DNA aptamer (quencher-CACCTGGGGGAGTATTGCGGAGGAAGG + anchor), 100 nM annealed; ATP concentration: 500 uM;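 also: ATP exposure 15 min at 22 °C before imaging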
RECORDED ENDPOINT: switch fluorescence ratio
Write the number on its own, no unit after it.

Example results:
Request: Name the reported switch fluorescence ratio value associated with the sequence GATTGATGTT
Response: 1.01

Request: Entry under review: GGGGGGATTA . Reported switch fluorescence ratio?
Response: 0.992

Request: Quick one: switch fluorescence ratio for AAGTATCCGT ?
Response: 0.986

Request: Given the sequence AGTTCAAGCT , what is its reported switch fluorescence ratio?
Response: 1.02

Then this sequence:
Request: Would you kindly share the measured switch fluorescence ratio for ATGGATGTGG ?
Response: 0.979

====

system: ATP; test: switch fluorescence ratio, 500 uM ATP over buffer (Cy3 cluster intensity, sum of 5 cycles each) (fold (ratio)); higher = stronger signal-on switching upon ATP binding; sequences stand for … in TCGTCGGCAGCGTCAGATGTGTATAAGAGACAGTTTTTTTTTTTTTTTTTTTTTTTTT…TC; conditions: aptamer strand: ATP DNA aptamer (quencher-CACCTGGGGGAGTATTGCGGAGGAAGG + anchor), 100 nM annealed; ATP concentration: 500 uM;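 also: ATP exposure 15 min at 22 °C before imaging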
Reported switch fluorescence ratio by item:
Quick one: just the number, no unit, thanks!

Sample records with switch fluorescence ratio:
Request: Form field: switch fluorescence ratio recorded for GTTGGCTATT with ATP (enter value)
Response: 0.984

Request: Give recorded switch fluorescence ratio with ATP for the following sequence: TGAAAAATTT
Response: 0.988

Next:
Request: Find switch fluorescence ratio (ATP) for the entry GGGATGTTAA
Response: 0.976

Request: Please tell me: switch fluorescence ratio of GAGTGCTCGA , system ATP?;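 also: ATP exposure 15 min at 22 °C before imaging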
Response: 1.01

====

The reader will find reported switch fluorescence ratio values listed item by item below.
system: ATP; test: switch fluorescence ratio, 500 uM ATP over buffer (Cy3 cluster intensity, sum of 5 cycles each) (fold (ratio)); higher = stronger signal-on switching upon ATP binding; sequences stand for … in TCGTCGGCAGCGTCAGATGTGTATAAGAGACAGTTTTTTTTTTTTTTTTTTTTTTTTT…TC; settings: aptamer strand: ATP DNA aptamer (quencher-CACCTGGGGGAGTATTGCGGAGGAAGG + anchor), 100 nM annealed; ATP concentration: 500 uM;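 also: ATP exposure 15 min at 22 °C before imaging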
# output: bare number, no unit

Request: Can you look up the measured switch fluorescence ratio of TCTGGGGCGT for me?
Response: 1.01

Request: Which switch fluorescence ratio value is on record for CTTGTGCAAG ?
Response: 1.03

Request: # switch fluorescence ratio lookup, item GCGTAAAGGA
Response: 1.02

Request: What switch fluorescence ratio value was documented for this sequence, CCGGCGGGGG ?
Response: 1.4

Others:
Request: Quick one: switch fluorescence ratio for CAAAGAAAAT ?
Response: 0.994

Request: Quick one: switch fluorescence ratio of GACTGGAAGG ?
Response: 1.01

Request: # lookup: switch fluorescence ratio of TTTGTATGAG
Response: 1.03

Request: What value of measured switch fluorescence ratio is listed for AGACGATTAG ?
Response: 0.977

Request: Which switch fluorescence ratio is reported for this sequence? TCAAGGCCTG
Response: 1.01

Request: // lookup switch fluorescence ratio for TTAGGGTCGG
Response: 1

====

system: ATP; assay: switch fluorescence ratio, 500 uM ATP over buffer (Cy3 cluster intensity, sum of 5 cycles each) (fold (ratio)); higher = stronger signal-on switching upon ATP binding; sequences stand for … in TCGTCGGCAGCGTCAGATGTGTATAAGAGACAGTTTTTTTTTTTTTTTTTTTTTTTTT…TC; conditions: aptamer strand: ATP DNA aptamer (quencher-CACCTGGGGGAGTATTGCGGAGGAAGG + anchor), 100 nM annealed; ATP concentration: 500 uM;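 also: ATP exposure 15 min at 22 °C before imaging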
RECORDED ENDPOINT: switch fluorescence ratio
Number only, no unit.

In the examples that follow, each entry is paired with its recorded switch fluorescence ratio.
Request: Param item = TGGTTGAACC ; retrieve measured switch fluorescence ratio.
Response: 1.03

Request: Entry under review: GAGCCCGCAG . Reported switch fluorescence ratio?
Response: 1.6

Request: What switch fluorescence ratio value was documented for this sequence, GGCCAGGAGA ?
Response: 1.04

Proceeding to the next sequence to report its switch fluorescence ratio.
Request: Entry AGGGGTGTAG : reported switch fluorescence ratio = ?
Response: 1.03

====

Collected switch fluorescence ratio values appear next to each entry.
test system: ATP; experiment: switch fluorescence ratio, 500 uM ATP over buffer (Cy3 cluster intensity, sum of 5 cycles each) (fold (ratio)); higher = stronger signal-on switching upon ATP binding; sequences stand for … in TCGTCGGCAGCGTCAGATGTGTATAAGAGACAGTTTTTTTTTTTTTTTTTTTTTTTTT…TC; settings: aptamer strand: ATP DNA aptamer (quencher-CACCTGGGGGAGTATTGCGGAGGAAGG + anchor), 100 nM annealed; ATP concentration: 500 uM;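 also: ATP exposure 15 min at 22 °C before imaging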
Lab note: jot down the number only; don't add units.

Examples with answers:
Request: switch fluorescence ratio, test system ATP, entry CATGAATTGT;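 also: ATP exposure 15 min at 22 °C before imaging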
Response: 0.974

Request: Request body: readout switch fluorescence ratio, system ATP, query AGCAATATGG . Return the value.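 Also: ATP exposure 15 min at 22 °C before imaging.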
Response: 2.49

Request: Record TGGGCCGAGG : what is its switch fluorescence ratio with ATP?
Response: 1.12

Request: Under ATP: switch fluorescence ratio value of TTGGGGTTTA ?
Response: 1.03

Request: Item GGGTTGCACG with ATP - switch fluorescence ratio?
Response: 0.994

Request: Please state recorded switch fluorescence ratio (tested on ATP) of CGTTCTGGAG;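 also: ATP exposure 15 min at 22 °C before imaging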
Response: 1.2

For the next question, use this sequence.
Request: Given the entry GGGTAATTGA , what switch fluorescence ratio was observed with ATP?
Response: 0.99

====

// switch fluorescence ratio lookup, one value per entry
tested on: ATP; assay: switch fluorescence ratio, 500 uM ATP over buffer (Cy3 cluster intensity, sum of 5 cycles each) (fold (ratio)); higher = stronger signal-on switching upon ATP binding; sequences stand for … in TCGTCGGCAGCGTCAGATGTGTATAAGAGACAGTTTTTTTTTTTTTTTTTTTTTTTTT…TC; settings: aptamer strand: ATP DNA aptamer (quencher-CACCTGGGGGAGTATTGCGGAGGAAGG + anchor), 100 nM annealed; ATP concentration: 500 uM;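 also: ATP exposure 15 min at 22 °C before imaging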
The answer should be written as a number, with no unit following it.

Guide cases for switch fluorescence ratio, answers given:
Request: Record request: switch fluorescence ratio value, item TCGGAAAATA
Response: 1.01

Request: Name the reported switch fluorescence ratio value associated with the sequence TTTGATGGTG
Response: 1.04

Request: Item under review: CCTTCCTTGT . Reported switch fluorescence ratio?
Response: 2.06

Further cases:
Request: Looking for the measured switch fluorescence ratio of TTAGCTGCGG , can you help?
Response: 0.995

Request: Give the measured switch fluorescence ratio of ATTGTTGAAT .
Response: 0.993

Request: // query switch fluorescence ratio value for entry CAGGTTATAT
Response: 1.03

Request: Fill blank: measured switch fluorescence ratio of the sequence AACTCGGTCT is ____.
Response: 1.03

Request: Which switch fluorescence ratio value belongs to ACGATTGGTA ?
Response: 1.03

Request: So what's the measured switch fluorescence ratio for this one? GTTTTAGTAG
Response: 1.02

Request: Which switch fluorescence ratio is reported for this sequence? AGAAAATAGA
Response: 0.979

Request: If you can, please state the reported switch fluorescence ratio value of GAGTCTAGCG .
Response: 1.02

Request: Quick one: switch fluorescence ratio for TGATGCTGTA ?
Response: 0.977

Request: # query: switch fluorescence ratio of entry CACCGGTTGG
Response: 1.01
